# experimental-target: Chitin synthase 1 (Candida albicans)
# test-protocol: Compound was tested for its ability to inhibit chitin synthetase using Candida albicans strain H-317.
# Assay type: functional
assay-endpoint: ID50 (µg/mL)

For orientation, consider the following solved cases.
| compound | experimental-target | ID50, µg/mL |
| --- | --- | --- |
| NC(=O)OC[C@H](O)[C@@H](O)[C@H](N)C(=O)N[C@H](C(=O)O)[C@H]1O[C@@H](n2cc(CO)c(=O)[nH]c2=O)[C@H](O)[C@@H]1O [POLYOXIN B] | Chitin synthase 1 (Candida albicans) | 0.8 |
| NCCOC[C@H](N)C(=O)N[C@H](C(=O)O)[C@H]1O[C@@H](n2ccc(=O)[nH]c2=O)[C@H](O)[C@@H]1O | Chitin synthase 1 (Candida albicans) | 100 |

1: CC(C)C[C@H](N)C(=O)N[C@H](C(=O)N[C@H](C(=O)O)[C@H]1OC(n2ccc(=O)[nH]c2=O)[C@H](O)[C@@H]1O)[C@H](C)[C@H](O)c1ccc(O)cn1 (stereo partly specified)
2: C[C@@H]([C@H](N)C(=O)N[C@H](C(=O)O)[C@H]1O[C@@H](n2ccc(=O)[nH]c2=O)[C@H](O)[C@@H]1O)[C@H](O)c1ccc(O)cn1 [NIKKOMYCIN]
3: N[C@@H](Cc1cccc(F)c1)C(=O)N[C@H](C(=O)O)[C@H]1O[C@@H](n2ccc(=O)[nH]c2=O)[C@H](O)[C@@H]1O
4: CC(C)C[C@H](N)C(=O)N[C@H](C(=O)N[C@H](C(=O)O)[C@H]1OC(n2cc(C=O)nc2O)[C@H](O)[C@@H]1O)[C@H](C)[C@H](O)c1ccc(O)cn1 (stereo partly specified)
Ranking field: ID50; order: falling. Answer by writing out the labels in the requested order.
1, 4, 3, 2
(1: 100 µg/mL, 4: 30 µg/mL, 3: 2 µg/mL, 2: 0.3 µg/mL)
